Molecular target: human MAO-B (Homo sapiens, UniProt P27338)
Sequence (P27338 whole entry, canonical isoform): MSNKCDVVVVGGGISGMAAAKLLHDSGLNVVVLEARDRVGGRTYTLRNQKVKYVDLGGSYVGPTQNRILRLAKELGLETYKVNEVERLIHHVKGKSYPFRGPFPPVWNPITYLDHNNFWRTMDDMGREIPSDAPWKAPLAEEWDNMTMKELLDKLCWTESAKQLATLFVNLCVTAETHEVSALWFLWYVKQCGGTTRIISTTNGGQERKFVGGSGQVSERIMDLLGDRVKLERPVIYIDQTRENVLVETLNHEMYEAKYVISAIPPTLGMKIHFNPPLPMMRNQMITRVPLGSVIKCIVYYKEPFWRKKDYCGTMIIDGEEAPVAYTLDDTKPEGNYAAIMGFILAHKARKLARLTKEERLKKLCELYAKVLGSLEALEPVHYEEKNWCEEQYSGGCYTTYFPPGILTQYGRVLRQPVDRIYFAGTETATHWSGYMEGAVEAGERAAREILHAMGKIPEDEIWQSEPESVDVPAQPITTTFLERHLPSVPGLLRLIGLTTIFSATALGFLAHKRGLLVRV
Assay: Human MAO isoform inhibition assay (fluorometric), MAO-B
Type: biochemical
Conditions: selectivity index
READOUT LABEL: SI (IC50 hMAO-A/IC50 hMAO-B)
Form rule: numeric answer, no unit written next to it.

Record excerpt, results attached:
Cc1ccc(-c2ccc(CN3C(=O)c4ccccc4C3=O)cc2)cc1 :: 18
N#Cc1ccc(-c2ccc(CN3C(=O)c4ccccc4C3=O)cc2)cc1 :: 45
Cc1cc(C)cc(-c2ccc(CN3C(=O)c4ccccc4C3=O)cc2)c1 :: 117

Query: Suppose we examine the compound O=C1c2ccccc2C(=O)N1Cc1ccc(-c2cccc3ccccc23)cc1 ; what SI (IC50 hMAO-A/IC50 hMAO-B) value has been reported?
Response: 53

Query: What does the data say about its SI (IC50 hMAO-A/IC50 hMAO-B)? Entry: O=C1c2ccccc2C(=O)N1Cc1ccc(-c2cccc(C(F)(F)F)c2)cc1
Response: 124

Query: Given the entry Cc1cc(C)c(-c2ccc(CN3C(=O)c4ccccc4C3=O)cc2)c(C)c1 , report its measured SI (IC50 hMAO-A/IC50 hMAO-B).
Response: 71

Query: SI (IC50 hMAO-A/IC50 hMAO-B); subject: Cc1ccc2cc(-c3ccc(CN4C(=O)c5ccccc5C4=O)cc3)ccc2n1
Response: 156

Query: Which SI (IC50 hMAO-A/IC50 hMAO-B) value is on record for N#CCc1ccc(-c2ccc(CN3C(=O)c4ccccc4C3=O)cc2)cc1 ?
Response: 7

Query: Name the reported SI (IC50 hMAO-A/IC50 hMAO-B) value associated with the compound O=C1c2ccccc2C(=O)N1Cc1ccc(-c2ccc([N+](=O)[O-])cc2)cc1
Response: 80

Query: Look up SI (IC50 hMAO-A/IC50 hMAO-B): O=C1c2ccccc2C(=O)N1Cc1ccc(-c2ccc3c(c2)OCO3)cc1
Response: 61

Query: # input compound: O=C1c2ccccc2C(=O)N1Cc1ccc(-c2cccs2)cc1 ; wanted: its SI (IC50 hMAO-A/IC50 hMAO-B)
Response: 59

Query: Field request: SI (IC50 hMAO-A/IC50 hMAO-B) | item: O=C1c2ccccc2C(=O)N1Cc1ccc(-c2ccc(C(F)(F)F)cc2)cc1
Response: 150
